Each entry below lists one item and its recorded IC50 neutralization, 18 hour virus/Ab incubation value.
- ASSAYED SYSTEM: HIV-1 92TH021 Env (HIV-1 strain 92TH021)
- PROTOCOL DETAILS: cell-based or functional assay

>>> result("1460_G14 (PGG14) (antibody, human IgG1, kappa, V domains shown) VH: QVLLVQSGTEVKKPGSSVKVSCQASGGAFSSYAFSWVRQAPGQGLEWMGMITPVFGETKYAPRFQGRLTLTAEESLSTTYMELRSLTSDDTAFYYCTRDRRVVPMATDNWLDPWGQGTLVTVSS VL: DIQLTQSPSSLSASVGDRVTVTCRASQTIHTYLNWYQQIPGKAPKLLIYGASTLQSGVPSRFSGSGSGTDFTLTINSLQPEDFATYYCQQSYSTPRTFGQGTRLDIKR")
"> 50 µg/mL"

Now look at this entry.
Exam item: Using known records, supply IC50 neutralization, 18 hour virus/Ab incubation for 1456_P20 (PG20) (antibody, human IgG1, kappa, V domains shown) VH: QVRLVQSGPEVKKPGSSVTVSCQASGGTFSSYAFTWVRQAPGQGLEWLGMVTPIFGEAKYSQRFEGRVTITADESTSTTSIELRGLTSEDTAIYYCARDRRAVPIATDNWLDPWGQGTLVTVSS VL: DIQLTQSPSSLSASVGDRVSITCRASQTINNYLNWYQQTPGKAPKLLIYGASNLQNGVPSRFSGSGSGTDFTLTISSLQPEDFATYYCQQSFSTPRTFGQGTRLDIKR
Marked response: > 50 µg/mL
